Target: Nuclear receptor subfamily 4 group A member 2 (Homo sapiens) (UniProt P43354)
Sequence (P43354 whole entry, looked up): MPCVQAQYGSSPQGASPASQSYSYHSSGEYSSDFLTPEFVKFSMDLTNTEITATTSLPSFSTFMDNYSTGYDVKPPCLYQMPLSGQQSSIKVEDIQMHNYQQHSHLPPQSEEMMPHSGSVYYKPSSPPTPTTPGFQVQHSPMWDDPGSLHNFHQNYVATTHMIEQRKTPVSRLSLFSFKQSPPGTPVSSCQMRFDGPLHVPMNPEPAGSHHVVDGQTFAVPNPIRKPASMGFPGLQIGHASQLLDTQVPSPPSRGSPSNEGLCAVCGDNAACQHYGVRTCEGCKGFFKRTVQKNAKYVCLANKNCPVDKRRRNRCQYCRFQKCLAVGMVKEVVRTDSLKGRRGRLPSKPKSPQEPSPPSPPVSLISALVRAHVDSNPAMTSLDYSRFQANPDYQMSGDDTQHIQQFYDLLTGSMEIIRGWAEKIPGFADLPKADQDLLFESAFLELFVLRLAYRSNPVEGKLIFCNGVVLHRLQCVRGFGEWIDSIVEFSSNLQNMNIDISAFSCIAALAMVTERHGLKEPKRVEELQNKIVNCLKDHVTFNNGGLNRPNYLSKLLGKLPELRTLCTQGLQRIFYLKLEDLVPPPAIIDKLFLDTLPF
Test: ATG_NURR1_TRANS: Attagene TRANS-FACTORIAL HepG2 Assay for human Nuclear Receptor Related Protein 1 (NURR1) (AID 2282985)
Conditions: HepG2 Attagene TRANS reporter, mRNA readout
Procedure: ATG_TRANS is a cell-based, multiplexed-readout assay that uses HepG2, a human liver cell line, with measurements taken at 24 hours after chemical dosing in a 24-well plate.ATG_NURR1_TRANS is one of 30 assay component(s) measured or calculated from the ATG_TRANS assay. […] This assay endpoint, ATG_NURR1_TRANS, was analyzed in the positive analysis fitting direction relative to DMSO as the negative control and baseline of activity. […]
Results filed as inconclusive are left out. The source made the active and inactive calls. How the source made its calls: active means hit-call score of the fitted dose curve at least 0.9, where 1 is the maximum; inconclusive means response in the unintended direction; inactive means score below 0.9.
Select the correct class. Options are active, inactive and nothing else.

For c1ccc2n[nH]nc2c1 , what call appears in the results of this test?
inactive

# iterate: CCCCCCCCOC(=O)c1cc(O)c(O)c(O)c1
active

# iterate: NC(=O)c1nc(-c2cccc(-c3cc(F)ccc3OCC(F)(F)C(F)(F)F)c2)n[nH]1
active

# iterate: CN1C(=O)N(c2ccccc2Br)Cc2cnc(Nc3ccc4c(c3)OCC(CO)O4)nc21 (stereo not given)
inactive

# iterate: CCN(Cc1cccnc1)C(=O)c1cccc(Cl)c1[C@]1(C)C(=O)N(Cc2ccc(OC)cc2OC)c2ccc(Cl)cc21
active

Source listed as PubChem BioAssay (EPA / NIEHS).
